# System: AMO-1 cells
# Protocol Description: In vitro cell viability assay (CellTiter-Glo)
# Format: cell-based, human
# Applied Conditions: Homo sapiens, AMO1, AMO-1, arithmetic mean; read-out: Arithmetic Mean EC50 µM
Parameter Measured: EC50 (µM)
Report the figure in µM without appending any unit label.

Compound	Unit Annotation	Measured Result
CO[C@]1(CN2CCN3CCCC[C@@H]3C2)/C=C/C[C@H](C)[C@@H](C)S(=O)(=O)NC(=O)c2ccc3c(c2)N(C[C@@H]2CC[C@H]21)C[C@@]1(CCCc2cc(Cl)ccc21)CO3 [AMG 397, reference compound]	µM	0.0135
CO[C@H]1/C=C/C[C@H](C)[C@@H](C)S(=O)(=O)NC(=O)c2ccc3c(c2)N(C[C@@H]2CC[C@H]21)C[C@@]1(CCCc2cc(Cl)ccc21)CO3	µM	0.0906
Cc1c(Cl)c2c(Cl)c(C)c1-c1c(-c3ccc(F)cc3)sc3ncnc(c13)O[C@@H](C(=O)O)Cc1cc(ccc1OCc1ccnc(-c3ccc(OC[C@H]4COCCO4)cc3)n1)OC[C@@H](CN1CCN(C)CC1)O2	µM	0.000155

Query: Dear colleague, I am looking for the recorded EC50 of the following compound: `Cc1c2c(nn1C)CSCc1cc(n(C)n1)CSc1cc(c3ccccc3c1)OCCCc1c(C(=O)O)n(C)c3c-2c(Cl)ccc13`
Response: 0.0229

Query: Dear colleague, I am looking for the recorded EC50 of the following compound: COc1ccccc1-c1nccc(COc2ccccc2CC(Oc2ncnc3sc(-c4ccc(F)cc4)c(-c4ccc(OCCN5CCN(C)CC5)c(Cl)c4C)c23)C(=O)O)n1 (centres unmarked) [Compound 1, reference compound]
Response: 0.00206
